pIC50: −log10 of the molar value.
The following compounds were reported with pIC50 values on Cathepsin D (Homo sapiens, UniProt P07339) in different studies.

Working through the 5 compounds below one at a time, give pIC50 for each.
1. N#Cc1ccc(C(=O)Nc2ccc3c(c2)[C@@]2(CCOC(N)=N2)c2cc(Cl)nc(F)c2O3)nc1
2. COc1nc(C2CC2)cc2c1Oc1ccc(NC(=O)c3ccc(Cl)cn3)cc1[C@@]21CCOC(N)=N1
3. CS(=O)(=O)N(c1cccc(C#N)c1)c1cccc(C(=O)N[C@@H](Cc2ccccc2)[C@H](O)CNCc2cccc(C(F)(F)F)c2)c1
4. C[C@]1(c2cc(NC(=O)c3ccc(C#N)cn3)ccc2F)N=C(N)O[C@@H]2CCCC(F)(F)[C@@H]21
5. CN1C(N)=N[C@](C)(c2cc(/C=C(\F)c3cnc(OCc4nccn4C)cn3)cc(F)c2F)CS1(=O)=O

["< 3.40", "< 3.40", "5.60 to 6.70", "< 3.70", "< 3.40"]
